system: antibodies in sera from SARS patients (sera 1a, 1b, 2, 6, 37, 62, London, SARS-yellow, SARS-green); format: binding, human
Lab note: anything with Binding of serum 62 to linear peptides of protein X2 below 0.5 is marked Satisfied; values at 0.5 or higher are marked Not satisfied.

Recorded results for 8 sequences are shown here.
SLHKLLQTLVLKMLH; Not satisfied
VSQIQLSLLKVTAFQ; Satisfied
LQTLVLKMLHSSSLT; Not satisfied
TLVLKMLHSSSLTSL; Not satisfied
QIQLSLLKVTAFQHQ; Satisfied
MSLYMAISPKFTTSL; Not satisfied
LLIQQWIQFMMSRRR; Not satisfied
LKVTAFQHQNSKKTT; Satisfied

INPUT: Lab note: Binding of serum 62 to linear peptides of protein X2 threshold 0.5. Does this sequence come in strictly under it? LSLLKVTAFQHQNSK
OUTPUT: Satisfied

###

tested on: antibodies in sera from SARS patients (sera 1a, 1b, 2, 6, 37, 62, London, SARS-yellow, SARS-green); format: binding, human; set-up: unit not given here
1 (yes) means recorded Binding of serum 62 to looped/cyclic peptides of protein N of SARS-CoV Urbani is 0.4 or above; 0 (no) means it is below 0.4.

RVRGGDGKMKELSPR; 1 (yes)
DQIGYYRRATRRVRG; 1 (yes)

INPUT: # bool: Binding of serum 62 to looped/cyclic peptides of protein N of SARS-CoV Urbani of MEVTPSGTWLTYHGA >= 0.4
OUTPUT: 1 (yes)

INPUT: # bool: Binding of serum 62 to looped/cyclic peptides of protein N of SARS-CoV Urbani of TYHGAIKLDDKDPQF >= 0.4
OUTPUT: 0 (no)

INPUT: # bool: Binding of serum 62 to looped/cyclic peptides of protein N of SARS-CoV Urbani of VTPSGTWLTYHGAIK >= 0.4
OUTPUT: 0 (no)

INPUT: # bool: Binding of serum 62 to looped/cyclic peptides of protein N of SARS-CoV Urbani of ATRRVRGGDGKMKEL >= 0.4
OUTPUT: 0 (no)

INPUT: # bool: Binding of serum 62 to looped/cyclic peptides of protein N of SARS-CoV Urbani of KGQQQQGQTVTKKSA >= 0.4
OUTPUT: 0 (no)

INPUT: # bool: Binding of serum 62 to looped/cyclic peptides of protein N of SARS-CoV Urbani of IRQGTDYKHWPQIAQ >= 0.4
OUTPUT: 1 (yes)

INPUT: # bool: Binding of serum 62 to looped/cyclic peptides of protein N of SARS-CoV Urbani of TPGSSRGNSPARMAS >= 0.4
OUTPUT: 1 (yes)

INPUT: # bool: Binding of serum 62 to looped/cyclic peptides of protein N of SARS-CoV Urbani of HGAIKLDDKDPQFKD >= 0.4
OUTPUT: 0 (no)

INPUT: # bool: Binding of serum 62 to looped/cyclic peptides of protein N of SARS-CoV Urbani of DDFSRQLQNSMSGAS >= 0.4
OUTPUT: 0 (no)

INPUT: # bool: Binding of serum 62 to looped/cyclic peptides of protein N of SARS-CoV Urbani of ILLNKHIDAYKTFPP >= 0.4
OUTPUT: 1 (yes)

INPUT: # bool: Binding of serum 62 to looped/cyclic peptides of protein N of SARS-CoV Urbani of SRIGMEVTPSGTWLT >= 0.4
OUTPUT: 1 (yes)

INPUT: # bool: Binding of serum 62 to looped/cyclic peptides of protein N of SARS-CoV Urbani of PKDHIGTRNPNNNAA >= 0.4
OUTPUT: 0 (no)

INPUT: # bool: Binding of serum 62 to looped/cyclic peptides of protein N of SARS-CoV Urbani of TFGGPTDSTDNNQNG >= 0.4
OUTPUT: 0 (no)

INPUT: # bool: Binding of serum 62 to looped/cyclic peptides of protein N of SARS-CoV Urbani of SGTWLTYHGAIKLDD >= 0.4
OUTPUT: 1 (yes)

INPUT: # bool: Binding of serum 62 to looped/cyclic peptides of protein N of SARS-CoV Urbani of KKTDEAQPLPQRQKK >= 0.4
OUTPUT: 0 (no)

INPUT: # bool: Binding of serum 62 to looped/cyclic peptides of protein N of SARS-CoV Urbani of EAQPLPQRQKKQPTV >= 0.4
OUTPUT: 0 (no)

###

test system: antibodies in sera from SARS patients (sera 1a, 1b, 2, 6, 37, 62, London, SARS-yellow, SARS-green); assay type: binding, human
measurement-type: Binding of serum 62 to looped/cyclic peptide (PEPSCAN-ELISA)
// return just the number, without any unit appended

Check out these entries, answers already filled in.
QSATKIIALNKRWQL; 0.6
SATKIIALNKRWQLA; 1.5
KSKNPLLYDANYFVC; 0.6
LQASLPFGWLVIGVA; 0.5
IPLQASLPFGWLVIG; 0.6
KGFQFICNLLLLFVT; 0.6

INPUT: Identify measured Binding of serum 62 to looped/cyclic peptide (PEPSCAN-ELISA) associated with SLPFGWLVIGVAFLA
OUTPUT: 0.3

INPUT: Identify measured Binding of serum 62 to looped/cyclic peptide (PEPSCAN-ELISA) associated with YKGFQFICNLLLLFV
OUTPUT: 0.3

INPUT: Identify measured Binding of serum 62 to looped/cyclic peptide (PEPSCAN-ELISA) associated with LYLYALIYFLQCINA
OUTPUT: 0.4

INPUT: Identify measured Binding of serum 62 to looped/cyclic peptide (PEPSCAN-ELISA) associated with KRWQLALYKGFQFIC
OUTPUT: 0.6

INPUT: Identify measured Binding of serum 62 to looped/cyclic peptide (PEPSCAN-ELISA) associated with LQCINACRIIMRCWL
OUTPUT: 0.9

INPUT: Identify measured Binding of serum 62 to looped/cyclic peptide (PEPSCAN-ELISA) associated with LYKGFQFICNLLLLF
OUTPUT: 0.5

INPUT: Identify measured Binding of serum 62 to looped/cyclic peptide (PEPSCAN-ELISA) associated with QFLYLYALIYFLQCI
OUTPUT: 0.5

INPUT: Identify measured Binding of serum 62 to looped/cyclic peptide (PEPSCAN-ELISA) associated with NACRIIMRCWLCWKC
OUTPUT: 0.7

###

test system: antibodies in sera from SARS patients (sera 1a, 1b, 2, 6, 37, 62, London, SARS-yellow, SARS-green); assay type: binding, human; set-up: unit not given here
Lab note: anything with Binding of serum 37 to linear peptides of protein N of SARS-CoV Urbani below 0.7 is marked 1.0; values at 0.7 or higher are marked 0.0.

Recorded results for 5 sequences are shown here.
TFGGPTDSTDNNQNG; 0.0
VPINTNSGPDDQIGY; 0.0
SDNGPQSNQRSAPRI; 1.0
DDFSRQLQNSMSGAS; 0.0
DLIRQGTDYKHWPQI; 1.0

INPUT: Lab note: Binding of serum 37 to linear peptides of protein N of SARS-CoV Urbani threshold 0.7. Does this sequence come in strictly under it? ANKEGIVWVATEGAL
OUTPUT: 0.0

INPUT: Lab note: Binding of serum 37 to linear peptides of protein N of SARS-CoV Urbani threshold 0.7. Does this sequence come in strictly under it? ASWFTALTQHGKEEL
OUTPUT: 0.0

INPUT: Lab note: Binding of serum 37 to linear peptides of protein N of SARS-CoV Urbani threshold 0.7. Does this sequence come in strictly under it? TPKDHIGTRNPNNNA
OUTPUT: 0.0

INPUT: Lab note: Binding of serum 37 to linear peptides of protein N of SARS-CoV Urbani threshold 0.7. Does this sequence come in strictly under it? HIDAYKTFPPTEPKK
OUTPUT: 1.0

###

tested on: antibodies in sera from SARS patients (sera 1a, 1b, 2, 6, 37, 62, London, SARS-yellow, SARS-green); assay type: binding, human
Lab note: anything with Binding of serum 2 to linear peptides of protein X1 of SARS-CoV Urbani below 0.5 is marked true; values at 0.5 or higher are marked false.

Recorded results for 5 sequences are shown here.
HGYFTEVYYQLESTQ; true
VIGVAFLAVFQSATK; true
SATKIIALNKRWQLA; false
QLESTQITTDTGIEN; true
IHTIDGSSGVANPAM; false

INPUT: Lab note: Binding of serum 2 to linear peptides of protein X1 of SARS-CoV Urbani threshold 0.5. Does this sequence come in strictly under it? VKDYVVVHGYFTEVY
OUTPUT: true

INPUT: Lab note: Binding of serum 2 to linear peptides of protein X1 of SARS-CoV Urbani threshold 0.5. Does this sequence come in strictly under it? YQLESTQITTDTGIE
OUTPUT: true

INPUT: Lab note: Binding of serum 2 to linear peptides of protein X1 of SARS-CoV Urbani threshold 0.5. Does this sequence come in strictly under it? TATIPLQASLPFGWL
OUTPUT: false

INPUT: Lab note: Binding of serum 2 to linear peptides of protein X1 of SARS-CoV Urbani threshold 0.5. Does this sequence come in strictly under it? FICNLLLLFVTIYSH
OUTPUT: false

INPUT: Lab note: Binding of serum 2 to linear peptides of protein X1 of SARS-CoV Urbani threshold 0.5. Does this sequence come in strictly under it? SKNPLLYDANYFVCW
OUTPUT: true

INPUT: Lab note: Binding of serum 2 to linear peptides of protein X1 of SARS-CoV Urbani threshold 0.5. Does this sequence come in strictly under it? IPLQASLPFGWLVIG
OUTPUT: false

INPUT: Lab note: Binding of serum 2 to linear peptides of protein X1 of SARS-CoV Urbani threshold 0.5. Does this sequence come in strictly under it? TTDTGIENATFFIFN
OUTPUT: false
